# assay text: YAP1 pathway inhibitors via CTGF transcript, primary screen, DLD1 colon cancer cells, RT-qPCR, single point (AID 743449);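 also: 0% = neutral control wells and 100% = dasatinib control wells; higher means stronger suppression of CTGF expression like dasatinib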
# condition set: DLD1 CTGF mRNA qPCR, 24 h; at 12.5 µM; hits give high values
Hit rate of the full screen: of about 9,900 compounds, about 90 (0.9%) were called active. About 2% were inconclusive and are not listed. This excerpt belongs to a sample that is enriched for actives.
Please provide measured inhibition for the entries that follow.
One number for each entry, in %.

Some solved entries appear below for comparison.
So what does the record say about inhibition for COc1ccccc1-c1ccc2c(c1)[C@H]1[C@H](CCN1S(=O)(=O)c1ccc(C)cc1)[C@@H](CO)N2 ?
17.3

So what does the record say about inhibition for Cc1ccc(S(=O)(=O)N2CC[C@@H]3[C@H](CO)Nc4ccc(-c5cccc(C(=O)N(C)C)c5)cc4[C@@H]32)cc1 ?
-15

So what does the record say about inhibition for Cc1ccc(S(=O)(=O)N2CC[C@H]3[C@H](CO)Nc4ccc(-c5cccc(C(=O)N(C)C)c5)cc4[C@H]32)cc1 ?
56.9

Consider now this further compound.
So what does the record say about inhibition for CC(=O)N1[C@H](CO)[C@H](c2ccccc2)[C@@H]1CN(C(=O)c1ccccc1F)C(C)C ?
13
